REPORTED_PROPERTY: intrinsic clearance, human liver microsomes

Value of intrinsic clearance, human liver microsomes reported for the molecule CC(C)[C@H](NC(=O)c1c(F)cccc1F)C(=O)N1CCOCC1 is ≤ 4.74 mL/min/kg

Value of intrinsic clearance, human liver microsomes reported for the molecule O=c1oc2cccnc2n1Cc1ccccn1 is ≤ 4.74 mL/min/kg

Value of intrinsic clearance, human liver microsomes reported for the molecule Cn1cncc1CCNC(=O)[C@H]1CC1(C)C is ≤ 4.74 mL/min/kg

* * *

REPORTED_PROPERTY: intrinsic clearance, human liver microsomes

Value of intrinsic clearance, human liver microsomes reported for the compound C[C@@H]1NC(=O)N(CCC2Cc3ccccc3C2)C1=O is ≤ 4.74 mL/min/kg

Value of intrinsic clearance, human liver microsomes reported for the compound CN1CCCN(C(=O)Nc2cccc(OCC(F)F)n2)CC1 is ≤ 4.74 mL/min/kg

Value of intrinsic clearance, human liver microsomes reported for the compound COc1ccc(OCC(=O)N2CCN(C)CC2)cc1 is ≤ 4.74 mL/min/kg

Sourced from the Biogen ADME set (Fang et al. 2023)
